# TEST_SYSTEM: Human recombinant MMP-2 (Homo sapiens, UniProt P08253)
# Construct: made in house; host or cells: MMP-2-transfected p2AHT2 cells
# ASSAY_REMARKS: In vitro MMP inhibition, IC50 determination (fluorogenic substrate I)
# Format: biochemical
# TEST_CONTEXT: value outside parentheses
ENDPOINT: IC50 (nM)

COMPOUND: O=C(NO)C1(S(=O)(=O)c2ccc(OCCOCc3cccnc3)cc2)CCOCC1 [Example 517]
IC50 / nM: 34.7
--
COMPOUND: O=C(NO)C1(S(=O)(=O)c2ccc(OCCCc3cncc(-c4ccccc4)c3)cc2)CCOCC1
IC50 / nM: 38.3

1. COc1ccc(S(=O)(=O)NCCOc2ccc(S(=O)(=O)C3(C(=O)NO)CCOCC3)cc2)cc1
2. O=C(NO)C1(S(=O)(=O)c2ccc(OCCCc3cc(C(F)(F)F)cc(C(F)(F)F)c3)cc2)CCOCC1
From the recorded data, which exceeds the other in IC50: 1 or 2 ? Please reply using the label of the selected record.
2
(2: 1710 nM, 1: 34 nM)

---

# TEST_SYSTEM: Human recombinant MMP-2 (Homo sapiens, UniProt P08253)
# Construct: made in house; host or cells: MMP-2-transfected p2AHT2 cells
# Sequence (P08253 110-660): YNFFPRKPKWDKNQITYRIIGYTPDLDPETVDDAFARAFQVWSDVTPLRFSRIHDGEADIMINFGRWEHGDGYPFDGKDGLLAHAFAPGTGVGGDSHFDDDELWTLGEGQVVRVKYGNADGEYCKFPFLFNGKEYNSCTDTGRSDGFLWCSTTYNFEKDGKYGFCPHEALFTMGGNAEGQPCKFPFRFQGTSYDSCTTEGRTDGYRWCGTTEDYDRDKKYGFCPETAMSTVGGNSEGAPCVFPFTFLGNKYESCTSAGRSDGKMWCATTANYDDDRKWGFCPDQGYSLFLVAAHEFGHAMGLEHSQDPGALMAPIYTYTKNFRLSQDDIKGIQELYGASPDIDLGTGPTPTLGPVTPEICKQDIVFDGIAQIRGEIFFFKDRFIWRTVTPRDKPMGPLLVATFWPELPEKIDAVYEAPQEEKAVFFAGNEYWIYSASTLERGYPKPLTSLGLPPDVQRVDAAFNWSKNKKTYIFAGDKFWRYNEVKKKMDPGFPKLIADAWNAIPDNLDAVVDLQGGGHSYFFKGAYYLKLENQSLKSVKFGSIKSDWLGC
# ASSAY_REMARKS: In vitro MMP inhibition, IC50 determination (fluorogenic substrate I)
# Format: biochemical
# TEST_CONTEXT: substrate (I) 4 μM, room temperature; values not in parenthesis
Structures can show the parent of a compound that is named as a salt.
ENDPOINT: IC50 (nM)

COMPOUND: COc1ccc(C(=O)NCCCOc2ccc(S(=O)(=O)C3(C(=O)NO)CCN(C4CC4)CC3)cc2)cc1 [Example 18, Monohydrochloride]
TEST_SYSTEM: Human recombinant MMP-2 (Homo sapiens, UniProt P08253)
IC50, nM: 537
//
COMPOUND: O=C(NO)C1(S(=O)(=O)c2ccc(OCCCn3nnc(-c4ccc(OC(F)(F)F)cc4)n3)cc2)CCN(C2CC2)CC1
TEST_SYSTEM: Human recombinant MMP-2 (Homo sapiens, UniProt P08253)
IC50, nM: 274
//
COMPOUND: COCCN1CCC(C(=O)NO)(S(=O)(=O)c2ccc(OCCCc3cccc(-c4ccccc4)c3)cc2)CC1
TEST_SYSTEM: Human recombinant MMP-2 (Homo sapiens, UniProt P08253)
IC50, nM: 133
//
COMPOUND: NC(=O)c1cccc(OCCOc2ccc(S(=O)(=O)C3(C(=O)NO)CCOCC3)cc2)c1
TEST_SYSTEM: Human recombinant MMP-2 (Homo sapiens, UniProt P08253)
IC50, nM: 35.5
//
COMPOUND: COc1ccc(-c2coc(CCCOc3ccc(S(=O)(=O)C4(C(=O)NO)CCOCC4)cc3)n2)cc1
TEST_SYSTEM: Human recombinant MMP-2 (Homo sapiens, UniProt P08253)
IC50, nM: 22.6

a. CCN1CCC(C(=O)NO)(S(=O)(=O)c2ccc(OCCCc3cccc(-c4ccccc4)c3)cc2)CC1
b. COc1ccc(/C(C#N)=C/CCCOc2ccc(S(=O)(=O)C3(C(=O)NO)CCOCC3)cc2)cc1
c. CN(CCCOc1ccc(S(=O)(=O)C2(C(=O)NO)CCOCC2)cc1)C(=O)c1ccc(N(C)C)cc1
d. COc1ccc(C(=O)C(C)CCCOc2ccc(S(=O)(=O)C3(C(=O)NO)CCOCC3)cc2)cc1 (stereo not drawn)
I would appreciate it if you could sort these 4 compounds by IC50, starting from the smallest number. Output the labels ranked as instructed.
d, b, a, c

I. COc1ccc(/C(CCCCOc2ccc(S(=O)(=O)C3(C(=O)NO)CCOCC3)cc2)=N/O)c(OC)c1
II. O=C(NO)C1(S(=O)(=O)c2ccc(OCCCn3nnc(-c4ccc(OC(F)(F)F)cc4)n3)cc2)CCN(CC2CC2)CC1
Which value of IC50 is smaller, the one for I or the one for II ? Please reply using the label of the selected record.
I
(I: 247 nM, II: 384 nM)

1. O=C(NO)C1(S(=O)(=O)c2ccc(OCCCc3ccc4ccccc4c3)cc2)CCOCC1
2. COCCN1CCC(C(=O)NO)(S(=O)(=O)c2ccc(OCCCSc3nc4ccccc4o3)cc2)CC1 [Example 43, Hydrochloride]
From the recorded data, which exceeds the other in IC50: 1 or 2 ? Please reply using the label of the selected record.
1
